Reported protein stability index values are given for each entry in this list.
B1: TRAF3IP2 (parent)
chain: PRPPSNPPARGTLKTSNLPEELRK

# Variants of: B1
# assay.comment: protein stability index of a GFP-peptide fusion (GPS, HEK-293T) (PSI 1-6); higher = more stable;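 further: lentivirally expressed fusions sorted by FACS into six bins by GFP to DsRed ratio, PSI derived from sequencing read proportions per bin multiplied by bin number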
# condition.info: c terminus: a fixed tail appended
Just the number, please, no unit after it.

mutation.notation: P4N
recorded.value: 4.7
--
mutation.notation: E20T
recorded.value: 4.25

Qu. Dear colleague, I am looking for the recorded protein stability index of the following variant: `L13D`
Ans. 5.09

Qu. Dear colleague, I am looking for the recorded protein stability index of the following variant: `P3K`
Ans. 4.88

Qu. Dear colleague, I am looking for the recorded protein stability index of the following variant: `K14E`
Ans. 5.27

Qu. Dear colleague, I am looking for the recorded protein stability index of the following variant: `K14M`
Ans. 4.94

Qu. Dear colleague, I am looking for the recorded protein stability index of the following variant: `R2S`
Ans. 5.25

Qu. Dear colleague, I am looking for the recorded protein stability index of the following variant: `S16M`
Ans. 4.7

Qu. Dear colleague, I am looking for the recorded protein stability index of the following variant: `L13K`
Ans. 4.79

Qu. Dear colleague, I am looking for the recorded protein stability index of the following variant: `N17F`
Ans. 4.42

Qu. Dear colleague, I am looking for the recorded protein stability index of the following variant: `L22D`
Ans. 5.22
